Target: human PF4 (Homo sapiens)
Construct: PF4 is a 70 amino acid, lysine-rich 7.8 kDa platelet-specific protein; made in house; host or cells: Escherichia coli BL21DE3 pLysS (pT7-7) and/or Drosophila S2 cells
Sequence (P02776 32-101): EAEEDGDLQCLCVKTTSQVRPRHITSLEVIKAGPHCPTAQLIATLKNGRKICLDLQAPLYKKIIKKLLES
Test: Inhibition of PF4 tetramer formation (BS3 cross-linking, SDS-PAGE)
Type: biochemical
Conditions: 1 μM inhibitor; read-out: % inhibition of PF4 tetramer formation at single concentration of inhibitor
PROPERTY: inhibition at 1 µM (%)
Output spec: scalar in %, unitless text.

Reference set (2 entries):
COCCOCC(=O)C1C(=O)c2ccc(C(=O)c3ccc4c(c3)C(=O)C(C(=O)COCCOC)C4=O)cc2C1=O (stereo not shown): 2
COCCOCCC(=O)C1C(=O)c2ccc(Oc3ccc4c(c3)C(=O)C(C(=O)CCOCCOC)C4=O)cc2C1=O (stereo not shown): 20

Identify the reported inhibition at 1 µM for the following entry. COCC(=O)C1C(=O)c2ccc(S(=O)(=O)c3ccc4c(c3)C(=O)C(C(=O)COC)C4=O)cc2C1=O (stereo not shown)
26

Identify the reported inhibition at 1 µM for the following entry. CC(C)OCC(=O)C1C(=O)c2ccc(Oc3ccc4c(c3)C(=O)C(C(=O)COC(C)C)C4=O)cc2C1=O (stereo not shown)
39

----------
Biological target: human PF4 (Homo sapiens)
Construct: PF4 is a 70 amino acid, lysine-rich 7.8 kDa platelet-specific protein; made in house; host or cells: Escherichia coli BL21DE3 pLysS (pT7-7) and/or Drosophila S2 cells
Assay: Inhibition of PF4 tetramer formation (BS3 cross-linking, SDS-PAGE)
Assay type: biochemical
Conditions: 10 μM inhibitor (column A); read-out: % inhibition of PF4 tetramer formation at single concentration of inhibitor
PROPERTY: inhibition at 10 µM (%)
Output spec: scalar in %, unitless text.

Reference set (6 entries):
O=C(O)CCNC(=O)C1C(=O)c2ccc(S(=O)(=O)c3ccc4c(c3)C(=O)C(C(=O)NCCC(=O)O)C4=O)cc2C1=O (stereo not drawn): 60
COCCNC(=O)C1C(=O)c2ccc(C(=O)c3ccc4c(c3)C(=O)C(C(=O)NCCOC)C4=O)cc2C1=O (stereo not drawn): 46
CCCC(=O)C1C(=O)c2ccc(C(=O)c3ccc4c(c3)C(=O)C(C(=O)CCC)C4=O)cc2C1=O (stereo not drawn): 75
COc1ccc(NC(=O)C2C(=O)c3ccc(C(=O)c4ccc5c(c4)C(=O)C(C(=O)Nc4ccc(OC)cc4OC)C5=O)cc3C2=O)c(OC)c1 (stereo not drawn): 70
COC(=O)[C@@H]1C[C@H]1C(=O)C1C(=O)c2ccc(S(=O)(=O)c3ccc4c(c3)C(=O)C(C(=O)[C@@H]3C[C@H]3C(=O)OC)C4=O)cc2C1=O (stereo partly drawn): 92
Cc1cccc(NC(=O)C2C(=O)c3ccc(C(=O)c4ccc5c(c4)C(=O)C(C(=O)Nc4cccc(C)c4)C5=O)cc3C2=O)c1 (stereo not drawn): 88

Given N[C@H](C(=O)C1C(=O)c2ccc(C(=O)c3ccc4c(c3)C(=O)C(C(=O)[C@@H](N)C3CC3)C4=O)cc2C1=O)C1CC1 (stereo partly drawn) , report its inhibition at 10 µM on human PF4 (Homo sapiens).
94

Given O=C1c2ccc(S(=O)(=O)c3ccc4c(c3)C(=O)C(C(=O)[C@@H]3C[C@H]3C(=O)O)C4=O)cc2C(=O)C1C(=O)[C@@H]1C[C@H]1C(=O)O (stereo in doubt) , report its inhibition at 10 µM on human PF4 (Homo sapiens).
100

Given CC(C)(C)OC(=O)N1C[C@H](F)C[C@H]1C(=O)C1C(=O)c2ccc(C(=O)c3ccc4c(c3)C(=O)C(C(=O)[C@@H]3C[C@@H](F)CN3C(=O)OC(C)(C)C)C4=O)cc2C1=O (stereo partly drawn) , report its inhibition at 10 µM on human PF4 (Homo sapiens).
86
